# System: House fly
# Experiment Description: whole plant or invertebrate
# Condition Details: Musca domestica, 48 h, read-out: House Fly Spray Mortality, % (at 20 ppm)
Reported mortality at 20 ppm values for a set of compounds
Express it in %; write the number only.

CCOP(=S)(OCC)SCCSCC [Disyston, reference compound] ... 100
CCOP(=S)(OCC)SCSc1ccc(Cl)cc1 [Trithion, reference compound] ... 80
CCOP(=S)(OCC)SCSCC [Thimet, reference compound] ... 90
CCCSP(=O)(OCC)SCSCC (stereo not drawn) ... 100
CCCSP(=O)(OCC)SCSc1ccc(Cl)cc1 (stereo not drawn) ... 100

Now consider a different compound.
Ask | Write down measured mortality at 20 ppm (House fly) for this compound. CCCSP(=O)(OCC)SCCSCC (stereo not drawn)
Reply | 100

###

Reported log10(LD50 at 336 h) values for a set of molecules
# Experiment Description: in vivo
# Condition Details: rat, po
A value of 2 here means LD50 at 336 h of 100 in mg/kg, since values are log10.

The cases that follow already have their log10(LD50 at 336 h) on record.
CCCSP(=O)(OCC)SCC[S+](C)[O-] (stereo not drawn) ... 1.66
CCOP(=O)(SCC)SCCSCC (stereo not drawn) [reference compound] ... 2.00
CCCSP(=O)(OCC)SCCSC (stereo not drawn) ... 1.66
CCCSP(=O)(OCC)SCC(C)SCC (stereo not drawn) ... 2.33
CCOP(=S)(OCC)SCCSCC [Disyston, reference compound] ... 1.40

Ask | Report log10(LD50 at 336 h), nothing else, for this molecule: CCCSP(=O)(OCC)SCCSCC (stereo not drawn)
Reply | 2.50

Ask | Report log10(LD50 at 336 h), nothing else, for this molecule: CCCSCCSP(=O)(OCC)SCCC (stereo not drawn)
Reply | 2.33

Ask | Report log10(LD50 at 336 h), nothing else, for this molecule: CCCSP(=O)(OCC)SCC(C)SC (stereo not drawn)
Reply | 2.04

Ask | Report log10(LD50 at 336 h), nothing else, for this molecule: CCCSC(C)CSP(=O)(OCC)SCCC (stereo not drawn)
Reply | 2.63

###

# Tested on: Corn rootworm larvae
# Experiment Description: whole plant or invertebrate
# Condition Details: soil, 120 h, read-out: Corn Rootworm Larvae Mortality, % (at 2.5 ppm)
Reported mortality at 2.5 ppm values for a set of compounds
Express it in %; write the number only.

The cases that follow already have their mortality at 2.5 ppm on record.
CCCSP(=O)(OCC)SCSc1ccc(Cl)cc1 (centres unmarked) ... 0
CCCSP(=O)(OCC)SCCSCC (centres unmarked) ... 20
CCOP(=S)(OCC)SCCSCC [Disyston, reference compound] ... 0
CCCSP(=O)(OCC)SCSCC (centres unmarked) ... 100

Now consider a different compound.
Ask | Report mortality at 2.5 ppm, nothing else, for this compound: CCOP(=S)(OCC)SCSCC [Thimet, reference compound]
Reply | 100

###

# Test system: Root-knot nematode
# Condition Details: in vivo
Experimental Readout: Nematode Control,% at 25 lb/acre (%)
Express it in %; write the number only.

The cases that follow already have their Nematode Control,% at 25 lb/acre on record.
CCCSP(=O)(OCC)SCCSC (centres unmarked) ... 90
CCCSP(=O)(OCC)SCCS(C)(=O)=O (centres unmarked) ... 100
CCCSP(=O)(OCC)SCC(C)S(C)(=O)=O (centres unmarked) ... 80

Ask | Report Nematode Control,% at 25 lb/acre, nothing else, for this compound: CCCSP(=O)(OCC)SCC[S+](C)[O-] (centres unmarked)
Reply | 100

Ask | Report Nematode Control,% at 25 lb/acre, nothing else, for this compound: CCCSP(=O)(OCC)SCC[S+]([O-])C(C)C (centres unmarked)
Reply | 75

Values from patent US4075332A
